For each entry below, report its percent inhibition of Factor 11 mRNA relative to untreated control cells value.
# Tested on: human Factor 11 mRNA
# TEST SUMMARY: Dose-dependent inhibition of human Factor 11 in HepB3 cells, lipofectin (Example 7)
# Type: cell-based
# CONDITIONS: 18.75 nM, ~16 hours
Answers are plain numbers, in %.

Below: 2 substances and their reported percent inhibition of Factor 11 mRNA relative to untreated control cells.
{"SUBSTANCE": "417003 (antisense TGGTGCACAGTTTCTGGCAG; 2-13-5 gapmer chemistry, further chemistry not given here) [compound 417003]", "RECORDED RESULT": 40}
{"SUBSTANCE": "416838 (antisense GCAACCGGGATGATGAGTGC; 5-10-5 gapmer, further chemistry not given here) [compound 416838]", "RECORDED RESULT": 59}

Now turn to the next substance.
Param item: 416858 (antisense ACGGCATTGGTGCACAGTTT; 5-10-5 gapmer, further chemistry not given here) [compound 416858] ; param system: human Factor 11 mRNA; output percent inhibition of Factor 11 mRNA relative to untreated control cells: 57

====

# CONDITIONS: mouse, in vivo, sc, 50 mg/kg
e = 2'-O-(2-methoxyethyl) (MOE); d = 2'-deoxy (DNA)
EXPERIMENTAL ENDPOINT: Cholesterol (mg/dL)
Answers are plain numbers, in mg/dL.

{"SUBSTANCE": "ISIS 416855: MOE gapmer, nucleobases 1275 to 1318 of SEQ ID NO: 1 (Table 8) (antisense CATTGGTGCACAGTTTCTGG; MOE gapmer, wing and gap sizes not given here)", "Cholesterol (mg/dL)": 162}
{"SUBSTANCE": "ISIS 412225: 5-10-5 MOE gapmer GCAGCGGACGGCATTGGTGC (sugars from the 5' end e5 d10 e5, backbone and methylation of C not given here)", "Cholesterol (mg/dL)": 128}
{"SUBSTANCE": "ISIS 416849: MOE gapmer, nucleobases 1275 to 1318 of SEQ ID NO: 1 (Table 8) (antisense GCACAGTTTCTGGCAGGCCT; MOE gapmer, wing and gap sizes not given here)", "Cholesterol (mg/dL)": 109}
{"SUBSTANCE": "ISIS 416852: MOE gapmer, nucleobases 1275 to 1318 of SEQ ID NO: 1 (Table 8) (antisense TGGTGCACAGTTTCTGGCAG; MOE gapmer, wing and gap sizes not given here)", "Cholesterol (mg/dL)": 125}

Attention now turns to another entry.
Briefly, Cholesterol measured for ISIS 416865: MOE gapmer, nucleobases 1275 to 1318 of SEQ ID NO: 1 (Table 8) (antisense TGGCAGCGGACGGCATTGGT; MOE gapmer, wing and gap sizes not given here) : 95

====

# CONDITIONS: mouse, in vivo, sc, 50 mg/kg
e = 2'-O-(2-methoxyethyl) (MOE); d = 2'-deoxy (DNA)
Exercise: state measured HCT for each of the substances provided.
Give bare numbers, in %.

Known HCT results, listed for orientation:
{"SUBSTANCE": "ISIS 416851: MOE gapmer, nucleobases 1275 to 1318 of SEQ ID NO: 1 (Table 8) (antisense GTGCACAGTTTCTGGCAGGC; MOE gapmer, wing and gap sizes not given here)", "RECORDED RESULT": 47}
{"SUBSTANCE": "ISIS 413481: 5-10-5 MOE gapmer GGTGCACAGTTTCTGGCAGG (sugars from the 5' end e5 d10 e5, backbone and methylation of C not given here)", "RECORDED RESULT": 45}
{"SUBSTANCE": "ISIS 416856: MOE gapmer, nucleobases 1275 to 1318 of SEQ ID NO: 1 (Table 8) (antisense GGCATTGGTGCACAGTTTCT; MOE gapmer, wing and gap sizes not given here)", "RECORDED RESULT": 47}
{"SUBSTANCE": "ISIS 416852: MOE gapmer, nucleobases 1275 to 1318 of SEQ ID NO: 1 (Table 8) (antisense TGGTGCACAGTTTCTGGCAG; MOE gapmer, wing and gap sizes not given here)", "RECORDED RESULT": 49}

Entry ISIS 412225: 5-10-5 MOE gapmer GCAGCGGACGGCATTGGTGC (sugars from the 5' end e5 d10 e5, backbone and methylation of C not given here) ; HCT = 50

====

# System: human Factor 11 mRNA
# TEST SUMMARY: Dose-dependent antisense inhibition of human Factor 11 in HepG2 cells, lipofectin 9.375-150 nM (Example 2)
# Type: cell-based
# CONDITIONS: 9.375 nM, ~16 h
# Method: Cells were plated at a density of 10,000 cells per well and transfected using lipofectin reagent with 9.375 nM, 18.75 nM, 37.5 nM, 75 nM, and 150 nM concentrations of antisense oligonucleotide, as specified in Table 3. After a treatment period of approximately 16 hours, RNA was isolated from the cells and Factor 11 mRNA levels were measured by quantitative real-time PCR. […] Factor 11 mRNA levels were adjusted according to total RNA content, as measured by RIBOGREEN. […]
Strand notation (5' to 3'): a small letter for the sugar, then the base; units joined by * are phosphorothioate-linked, units joined directly phosphodiester-linked; [ ] holds rarer units or linkages, { } end groups; capitals alone tell only the bases. e = 2'-O-(2-methoxyethyl) (MOE); [5mC] = 5-methylcytosine; d = 2'-deoxy (DNA)
Parameter threshold = 30%. Response is Met when percent inhibition of Factor 11 at 9.375 nM meets or exceeds it, else Not met.

Reference set (5 entries):
{"SUBSTANCE": "413468 (antisense eG*eT*e[5mC]*eT*eA*dG*dG*dT*d[5mC]*d[5mC]*dA*d[5mC]*dA*dT*dA*eA*eA*eT*eG*eT) [compound 413468]", "CLASS": "Not met"}
{"SUBSTANCE": "413476 (antisense eT*eT*eG*eA*eG*dA*dT*dT*d[5mC]*dT*dT*dT*dG*dG*dG*e[5mC]*e[5mC]*eA*eT*eT) [compound 413476]", "CLASS": "Not met"}
{"SUBSTANCE": "413467 (antisense eG*eG*eT*e[5mC]*e[5mC]*dA*d[5mC]*dA*dT*dA*dA*dA*dT*dG*dT*e[5mC]*eT*eT*eT*eG) [compound 413467]", "CLASS": "Not met"}
{"SUBSTANCE": "412223 (antisense ACAGTTTCTGGCAGGCCTCG; 5-10-5 MOE gapmer, further chemistry not given here) [compound 412223]", "CLASS": "Met"}
{"SUBSTANCE": "413482 (antisense GGACGGCATTGGTGCACAGT; 5-10-5 MOE gapmer, further chemistry not given here) [compound 413482]", "CLASS": "Not met"}

Prompt line: Check this substance for percent inhibition of Factor 11 at 9.375 nM at or above 30%: 412225 (antisense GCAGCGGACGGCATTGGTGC; 5-10-5 MOE gapmer, further chemistry not given here) [compound 412225]
Response line: Met

Prompt line: Can 412206 (antisense e[5mC]*e[5mC]*eG*eT*eG*d[5mC]*dA*dT*d[5mC]*dT*dT*dT*d[5mC]*dT*dT*eG*eG*e[5mC]*eA*eT) [compound 412206] be said to have percent inhibition of Factor 11 at 9.375 nM at or above 30%?
Response line: Not met

Prompt line: Please check the record 412224 (antisense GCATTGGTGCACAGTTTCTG; 5-10-5 MOE gapmer, further chemistry not given here) [compound 412224] and state if its percent inhibition of Factor 11 at 9.375 nM is at or above 30%.
Response line: Not met

Prompt line: State whether the measured percent inhibition of Factor 11 at 9.375 nM reaches 30%, counting equality as reaching it, for 413469 (antisense eT*eG*e[5mC]*e[5mC]*e[5mC]*dT*dT*d[5mC]*dA*dT*dG*dT*d[5mC]*dT*dA*eG*eG*eT*e[5mC]*e[5mC]) [compound 413469]
Response line: Not met

Prompt line: Reported percent inhibition of Factor 11 at 9.375 nM at or above 30%? 413481 (antisense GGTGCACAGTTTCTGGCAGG; 5-10-5 MOE gapmer, further chemistry not given here) [compound 413481]
Response line: Not met

Prompt line: Exam item: decide whether the reported percent inhibition of Factor 11 at 9.375 nM for 412212 (antisense e[5mC]*e[5mC]*eG*eG*eG*dA*dT*dG*dA*dT*dG*dA*dG*dT*dG*e[5mC]*eA*eG*eA*eT) [compound 412212] is at least 30%.
Response line: Not met

Prompt line: Is it the case that 412203 (antisense eA*eA*eT*eG*eT*d[5mC]*dT*dT*dT*dG*dT*dT*dG*d[5mC]*dA*eA*eG*e[5mC]*eG*e[5mC]) [compound 412203] has percent inhibition of Factor 11 at 9.375 nM reaching or exceeding 30%?
Response line: Not met

The measurements presented in this section are drawn from patent US20230263822A1.
